Where these numbers come from: PubChem BioAssay (NCI)

- Measurement notes: NCI Yeast Anticancer Drug Screen. Data for the mlh1 rad18 strain (AID 175)
- Condition notes: S. cerevisiae mlh1 rad18 strain growth inhibition; at 50.0 µM (retest, dose inferred, filed as 5.0)
This is part of a sample that, as a whole, favours compounds with a hit. Of some 79,000 tested, about 15% had one in any assay. Activity calls are given as the source filed them. Rule as the data show it: active = growth inhibition above about 70%; inactive = the rest.
// classify into yes (1) = active, no (0) = inactive

{"columns": ["Compound", "Class name"],
 "data": [
  ["CC12C(=O)N(CC(=O)O)C(=O)C1(C)C1c3ccccc3C2c2ccc3ccccc3c21 (stereo unspecified)", "yes (1)"]
]}

GET /call?item= CC(=O)c1sc2c(c1O)c(=O)n(-c1ccccc1)c(=S)n2-c1ccccc1 returns the recorded outcome of this test. yes (1)

GET /call?item= C1=C(c2ccccc2)OC(c2ccccc2)=C[P+]1(c1ccccc1)c1ccccc1 returns the recorded outcome of this test. yes (1)

GET /call?item= O=C1Oc2cc3c(c4cccc1c24)OCN(c1ccccc1)C3 returns the recorded outcome of this test. no (0)

GET /call?item= CCN(CC)CCOC(=O)c1ccc(N=Nc2ccc(O)c3ccccc23)cc1 returns the recorded outcome of this test. yes (1)

GET /call?item= CCCC(=O)Oc1ccc(-c2ccc(Br)cc2)cc1 returns the recorded outcome of this test. yes (1)

###

- Measurement notes: NCI Yeast Anticancer Drug Screen. Data for the mec2-1 strain (AID 157)
- Condition notes: S. cerevisiae mec2-1 strain, at 50.0 µM, stronger effect = higher value
About 79,000 compounds went through this panel and 15% of them were active in at least one assay; those are over-represented in the sample as a whole. Active and inactive are the calls of the source. Rule as the data show it: active = growth inhibition above about 70%; inactive = the rest.
Answer each item with its documented growth inhibition.

{"columns": ["Compound", "Observed result"],
 "data": [
  ["O=C1c2cc(Br)ccc2NC1(c1c[nH]c2ccccc12)c1c[nH]c2ccccc12", "94.8% (active)"],
  ["NC(N)=NS(=O)(=O)c1ccc(N=Cc2c3ccccc3nc3cc(Cl)ccc23)cc1", "93% (active)"],
  ["Cc1nn(C(=O)c2ccccc2O)c2c1C(c1ccc3ccccc3c1O)SC(N)=N2 (stereo not given)", "92.5% (active)"],
  ["C=C1C(=O)C23OC2C1CCC(=O)C1(C)CC[C@H](OC(C)=O)C(C)(C)[C@H]1CC3O (stereo not given in full)", "100% (active)"]
]}

Attention now shifts to the item below.
Provide measured growth inhibition value, entry: COC(=Nc1ccccc1)SSC(C)C 86.8% (active)

###

- Measurement notes: NCI Yeast Anticancer Drug Screen. Data for the bub3 strain (AID 167)
- Condition notes: S. cerevisiae bub3 mutant strain, at 50.0 µM (retest, dose inferred, filed as 5.0), stronger effect = higher value
Compounds without any hit were thinned out: in the full panel of roughly 79,000, 15% have a hit. Active and inactive are the calls of the source. No stated cut-off is given here; in the data, active means growth inhibition above about 70%; inactive means the rest.
Answer each item with its documented growth inhibition.

Look over these answered cases.
{"columns": ["Compound", "growth inhibition"],
 "data": [
  ["C=C1CCC[C@@]2(C)CC[C@@H](/C(C)=C\\C=C\\C(C)(C)O)C[C@H]12", "28% (inactive)"],
  ["CC(=O)c1sc2c(c1O)c(=O)n(-c1ccccc1)c(=S)n2-c1ccccc1", "94% (active)"],
  ["O=P(C(=S)Nc1ccccc1Cl)(c1ccccc1)c1ccccc1", "97% (active)"],
  ["OCc1c(-c2cccc3ccccc23)sc(-c2cccc3ccccc23)c1CO", "82% (active)"],
  ["CCCC(=O)Oc1ccc(-c2ccc(Br)cc2)cc1", "95% (active)"],
  ["COC1=CC(=O)c2c(ccc3ncnc(N)c23)C1=O", "-11% (inactive)"],
  ["CCN(CC)CCOC(=O)Nc1cc(Cl)cc(Cl)c1", "69% (inactive)"],
  ["CC(=O)O[C@H]1CC[C@@]2(C)C(CC[C@]3(C)C2CC=C2[C@@H]4CC(C)(C)CC[C@]4(C(=O)NCCN(C)C)CCC23C)C1(C)C (stereo not given in full)", "87% (active)"],
  ["Cn1c(=S)sc2nc3ccccc3n2c1=S", "98% (active)"]
]}

Provide measured growth inhibition value, entry: C1=C(C2=C[P+](c3ccccc3)(c3ccccc3)C=C(c3ccccc3)O2)OC(c2ccccc2)=C[P+]1(c1ccccc1)c1ccccc1 66% (inactive)
